system: A2780; experiment: MTT assay; type: cell-based, human; conditions: read-out: IC50 at 48 h; A2780, 48 h
Experimental Endpoint: pIC50
Numbers only, as −log10 of the molar value.

Q: Request the reported pIC50 associated with N.N.[Cl][Pt][Cl] [cisplatin]
Result: 5.20
